Exercise: for every item that follows, state its recorded self-splicing fitness (ln).
# measurement.notes: self-splicing fitness, log relative to wild type (ln ratio); higher = more splicing; Tetrahymena group I intron in knt gene, E. coli kanamycin selection, DiMSum; sequences stand for … in CUCUCU…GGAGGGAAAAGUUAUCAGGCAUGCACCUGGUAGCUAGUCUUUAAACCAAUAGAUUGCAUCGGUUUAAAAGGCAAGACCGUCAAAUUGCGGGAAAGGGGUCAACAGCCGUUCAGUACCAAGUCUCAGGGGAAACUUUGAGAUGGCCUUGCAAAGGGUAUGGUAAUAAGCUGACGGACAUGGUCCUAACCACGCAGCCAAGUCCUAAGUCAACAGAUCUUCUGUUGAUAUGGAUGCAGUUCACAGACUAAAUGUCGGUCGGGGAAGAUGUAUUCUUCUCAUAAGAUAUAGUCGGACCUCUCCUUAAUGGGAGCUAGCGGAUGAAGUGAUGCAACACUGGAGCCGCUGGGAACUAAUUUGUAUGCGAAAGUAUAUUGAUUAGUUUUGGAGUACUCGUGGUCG;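 note: selection with 25 µg/mL kanamycin versus none on LB agar overnight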
# condition.parameters: 30 °C
// print number alone

query: Note down self-splicing fitness (ln) recorded for CCAUAGCAAUAUUACGUACC
result: -3.95

query: Check the records and state self-splicing fitness (ln) for CCAAAGCAAUAUUACGUAAC
result: -4.73

query: Note self-splicing fitness (ln) for the sequence shown: ACGAAGCAAUAUUACGCUGG
result: -1.07

query: Specify reported self-splicing fitness (ln) for the sequence shown: UAGAAGCAAUAUUACGAAGG
result: -2.9

query: Answer with reported self-splicing fitness (ln) of GCCUAGCAAUAUUACGCACC
result: -0.962

query: Answer with reported self-splicing fitness (ln) of CUGCAGCAAUAUUACGCCGG
result: -2.55

query: Consider the sequence AAGAAGCAAUAUUACGAGCA and give its recorded self-splicing fitness (ln).
result: -1.21

query: Fill in self-splicing fitness (ln) for record ACAAAGCAAUAUUACGGACC
result: -1.02

query: Please supply the value of reported self-splicing fitness (ln) for the item AGCGAGCAAUAUUACGACUG
result: -1.91

query: Check the records and state self-splicing fitness (ln) for UGCUAGCAAUAUUACGGUCC
result: -2.01

query: Input GUAAAGCAAUAUUACGCUUC , output reported self-splicing fitness (ln).
result: -3.5

query: Quickly give me recorded self-splicing fitness (ln) for CGGUAGCAAUAUUACGCCUU
result: -0.779

query: # return recorded self-splicing fitness (ln) for entry UAUAAGCAAUAUUACGAUCU
result: -1.22

query: Query self-splicing fitness (ln) for CCCCAGCAAUAUUACGUUCC
result: -3.87

query: State, in one line, measured self-splicing fitness (ln) of ACACAGCAAUAUUACGUAGC
result: -3.75

query: Output self-splicing fitness (ln) of UGUUAGCAAUAUUACGGCAU
result: -3.67

query: Quote self-splicing fitness (ln) reported for ACCUAGCAAUAUUACGGCUU please.
result: -0.695

query: Using known records, supply self-splicing fitness (ln) for CACAAGCAAUAUUACGGCCU
result: -4.49

query: For the sequence CCCAAGCAAUAUUACGGACA , give its measured self-splicing fitness (ln) value.
result: -3.25

query: Quick one: give measured self-splicing fitness (ln) for UGACAGCAAUAUUACGGCUU
result: -0.693

query: // Input: CUAAAGCAAUAUUACGUUUA . Output its self-splicing fitness (ln) only.
result: -4.12

query: Give the reported self-splicing fitness (ln) for this sequence. CUGAAGCAAUAUUACGUACC
result: -3.37

query: Name the recorded self-splicing fitness (ln) of the sequence listed here: AAUGAGCAAUAUUACGUCAA
result: -2.4

query: Please give measured self-splicing fitness (ln) of the following entry: GGAAAGCAAUAUUACGUAGC
result: -2.63

query: Please give the documented self-splicing fitness (ln) of UCGAAGCAAUAUUACGGUCA
result: -1.83

query: Tell me measured self-splicing fitness (ln) for UUAGAGCAAUAUUACGUAGA please.
result: -2.18

query: Please list self-splicing fitness (ln) recorded for the sequence GGGCAGCAAUAUUACGGCAU
result: 0.216

query: Please indicate self-splicing fitness (ln) recorded for GAUGAGCAAUAUUACGGGGU
result: -3.36

query: Return value of self-splicing fitness (ln) for input ACGUAGCAAUAUUACGGCUC , no commentary.
result: -1.2

query: Assign self-splicing fitness (ln) to the following record: AAGCAGCAAUAUUACGCGAU
result: -3.31

query: # return recorded self-splicing fitness (ln) for entry GCGGAGCAAUAUUACGUAUG
result: -3.28

query: Give reported self-splicing fitness (ln) value for AGUGAGCAAUAUUACGACGA
result: -2.44

query: Return value of self-splicing fitness (ln) for input ACGUAGCAAUAUUACGAUAG , no commentary.
result: -3.45

query: Give self-splicing fitness (ln) for the following sequence: AGCCAGCAAUAUUACGUGAU
result: -2.31

query: Return reported self-splicing fitness (ln). Input sequence: CAUCAGCAAUAUUACGGAAA
result: -2.66

query: Give self-splicing fitness (ln) for the following sequence: AUAGAGCAAUAUUACGUGCC
result: -3.44

query: Provide measured self-splicing fitness (ln) value, entry: AGUCAGCAAUAUUACGGUCG
result: 0.451

query: Name the recorded self-splicing fitness (ln) of the sequence listed here: CAGAAGCAAUAUUACGCCAG
result: -0.586

query: Tell me self-splicing fitness (ln) reported for GUCCAGCAAUAUUACGCGAU
result: -3.24

query: Tell me self-splicing fitness (ln) reported for GCUUAGCAAUAUUACGUGCG
result: -1.23

query: Please list self-splicing fitness (ln) recorded for the sequence UAUCAGCAAUAUUACGCACA
result: -0.305

query: Please supply the value of reported self-splicing fitness (ln) for the item UCCCAGCAAUAUUACGUUCA
result: -0.991

query: Identify measured self-splicing fitness (ln) associated with AUUGAGCAAUAUUACGACAA
result: -2.28

query: Look up self-splicing fitness (ln) of AAUAAGCAAUAUUACGUUAC and report it.
result: -3.62

query: Answer with reported self-splicing fitness (ln) of ACCCAGCAAUAUUACGGAGG
result: -2.1

query: Please report the measured self-splicing fitness (ln) for GUAGAGCAAUAUUACGGUAU
result: -1.38

query: Please give the documented self-splicing fitness (ln) of CCCGAGCAAUAUUACGUCAG
result: -3.49

query: Please look at this sequence and report its self-splicing fitness (ln): UCUCAGCAAUAUUACGUCCG
result: -2.5

query: Entry AGGUAGCAAUAUUACGGCCG needs its self-splicing fitness (ln) filled in; supply it.
result: -0.244

query: Please report self-splicing fitness (ln) for the following sequence: CUAGAGCAAUAUUACGUAGA
result: -3.37

query: Provide only the value of recorded self-splicing fitness (ln) for CAUGAGCAAUAUUACGCAUA
result: -2.29

query: Tell me self-splicing fitness (ln) reported for UUACAGCAAUAUUACGUAGC
result: -3.65

query: Tell me measured self-splicing fitness (ln) for GCACAGCAAUAUUACGGAGA please.
result: -2.85

query: Please list self-splicing fitness (ln) recorded for the sequence UACGAGCAAUAUUACGGCGC
result: -2.53

query: Report measured self-splicing fitness (ln); entry is ACUUAGCAAUAUUACGUGCA
result: -1.1

query: Look up self-splicing fitness (ln) of GGGUAGCAAUAUUACGCUCU and report it.
result: -3.13

query: Find the measured self-splicing fitness (ln) of GAUCAGCAAUAUUACGGAAU and report it.
result: -1.27

query: Check the records and state self-splicing fitness (ln) for UACUAGCAAUAUUACGUUCG
result: -0.992

query: Determine its reported self-splicing fitness (ln): AACAAGCAAUAUUACGGAAA
result: -3.08

query: Name the recorded self-splicing fitness (ln) of the item CCGUAGCAAUAUUACGGGCC in your answer.
result: -3.55

query: Quote self-splicing fitness (ln) reported for AAUUAGCAAUAUUACGUCUU please.
result: 0.444

query: For the sequence UCAUAGCAAUAUUACGUUAC , report self-splicing fitness (ln).
result: -3.58

query: Provide measured self-splicing fitness (ln) value, entry: ACAGAGCAAUAUUACGCAAA
result: -2.6

query: Determine its reported self-splicing fitness (ln): ACGUAGCAAUAUUACGGACC
result: -1.21

query: Tell me self-splicing fitness (ln) reported for AUUAAGCAAUAUUACGAAGC
result: -3.3

query: Supply self-splicing fitness (ln) value. Item: GUUGAGCAAUAUUACGAAAG
result: -2.93

query: Note down self-splicing fitness (ln) recorded for AUAUAGCAAUAUUACGGUUC
result: -3.14

The measured values listed here are drawn from the supplement of paper PMC7877785.
